- Tested on: Escherichia coli
- Experiment: minimum inhibitory concentration (MIC)
- Condition set: isolate (source animal id): 179
Measurement name: minimum inhibitory concentration

Per the records, this molecule ( CCCNC[C@]1(O)[C@H](C)O[C@@H](O[C@H]2[C@H](C)[C@@H](O[C@@H]3O[C@H](C)C[C@H](N(C)C)[C@H]3O)[C@](C)(O)C[C@@H](C)CN[C@H](C)[C@@H](O)[C@](C)(O)[C@@H](CC)OC(=O)[C@@H]2C)C[C@@]1(C)OC [Tulathromycin] ) has minimum inhibitory concentration equal to ≤ 8 µg/mL

minimum inhibitory concentration for CC[C@H]1OC(=O)C[C@@H](O)[C@H](C)[C@@H](O[C@@H]2O[C@H](C)[C@@H](O)[C@H](N(C)C)[C@H]2O)[C@@H](CCN2CCCCC2)C[C@@H](C)C(=O)/C=C/C(C)=C/[C@@H]1CN1CCCCC1 [Tildipirosin] is 4 µg/mL

Per the records, this molecule ( CC[C@H]1OC(=O)C[C@@H](O)[C@H](C)[C@@H](O[C@@H]2O[C@H](C)[C@@H](O[C@H]3C[C@@](C)(O)[C@@H](O)[C@H](C)O3)[C@H](N(C)C)[C@H]2O)[C@@H](CC=O)C[C@@H](C)C(=O)/C=C/C(C)=C/[C@@H]1CO[C@@H]1O[C@H](C)[C@@H](O)[C@@H](OC)[C@H]1OC [Tylosin] ) has minimum inhibitory concentration equal to > 32 µg/mL

Input NC[C@@H]1O[C@H](O[C@H]2[C@@H](O)[C@H](O[C@@H]3[C@@H](O)[C@H](N)C[C@H](N)[C@H]3O[C@H]3O[C@H](CN)[C@@H](O)[C@H](O)[C@H]3N)O[C@@H]2CO)[C@H](N)[C@@H](O)[C@@H]1O [Neomycin] . Output minimum inhibitory concentration: ≤ 4 µg/mL

###

- Test system: Pasteurella multocida
- Experiment: minimum inhibitory concentration (MIC)
- Condition set: isolate (source animal id): 153
Answer each item with its documented minimum inhibitory concentration.

The recorded minimum inhibitory concentration for CNC(C)C1CCC(N)C(OC2C(N)CC(N)C(OC3OCC(C)(O)C(NC)C3O)C2O)O1 (stereo not drawn) is 4 µg/mL

Per the record, CO/N=C(\C(=O)N[C@@H]1C(=O)N2C(C(=O)O)=C(CSC(=O)c3ccco3)CS[C@H]12)c1csc(N)n1 has minimum inhibitory concentration of ≤ 0.25 µg/mL

Record CC[C@H]1OC(=O)C[C@@H](O)[C@H](C)[C@@H](O[C@@H]2O[C@H](C)[C@@H](O)[C@H](N(C)C)[C@H]2O)[C@@H](CCN2CCCCC2)C[C@@H](C)C(=O)/C=C/C(C)=C/[C@@H]1CN1CCCCC1 . Reported minimum inhibitory concentration: > 16 µg/mL

###

- System: Mannheimia haemolytica
- Experiment: minimum inhibitory concentration (MIC)
- Condition set: isolate (source animal id): 122
Measurement name: minimum inhibitory concentration

For reference, reported minimum inhibitory concentration for CN1C[C@@H]2C[C@H]1CN2c1cc2c(cc1F)c(=O)c(C(=O)O)cn2C1CC1 [Danofloxacin] stands at 0.5 µg/mL

Quick note, minimum inhibitory concentration for CN(C)[C@@H]1C(O)=C(C(N)=O)C(=O)[C@@]2(O)C(O)=C3C(=O)c4c(O)cccc4[C@@](C)(O)[C@H]3C[C@@H]12 [Tetracycline] landed at 4 µg/mL

Quick note, minimum inhibitory concentration for CCC[C@@H]1C[C@@H](C(=O)N[C@@H]([C@H]2O[C@H](SC)[C@H](O)[C@@H](O)[C@H]2O)[C@H](C)Cl)N(C)C1 [Clindamycin] landed at 16 µg/mL

Value of minimum inhibitory concentration reported for the compound CC1(C)S[C@@H]2[C@H](NC(=O)Cc3ccccc3)C(=O)N2[C@H]1C(=O)O [Penicillin] is 0.25 µg/mL

The reported minimum inhibitory concentration of the compound COc1cc(Cc2cnc(N)nc2N)cc(OC)c1OC.Cc1cc(NS(=O)(=O)c2ccc(N)cc2)no1 [trimethoprim-sulfamethoxazole] was ≤ 2 µg/mL

Value of measured minimum inhibitory concentration for the entry CN[C@@H]1[C@H](O)[C@H](NC)[C@H]2O[C@@]3(O)C(=O)C[C@@H](C)O[C@H]3O[C@@H]2[C@H]1O [Spectinomycin] : 32 µg/mL

The compound identified as C=C[C@]1(C)C[C@@H](OC(=O)CSCCN(CC)CC)[C@]2(C)[C@H](C)CC[C@]3(CCC(=O)[C@H]32)[C@@H](C)[C@@H]1O [Tiamulin] registered its minimum inhibitory concentration at 16 µg/mL

Per the record, CCCN1C[C@H](C)[C@@H](O)[C@](C)(O)[C@@H](CC)OC(=O)[C@H](C)[C@@H](O[C@H]2C[C@@](C)(OC)[C@@H](O)[C@H](C)O2)[C@H](C)[C@@H](O[C@@H]2O[C@H](C)C[C@H](N(C)C)[C@H]2O)[C@](C)(O)C[C@H]1C [Gamithromycin] has minimum inhibitory concentration of 8 µg/mL
